molecular target: AsPC-1 HiBiT-KRASG12D (Homo sapiens, UniProt P01116, G12D); construct: insert the HiBiT tag onto the N-terminus of one or more of the endogenous KRAS alleles; endogenous in cells; host or cells: AsPC-1 (ATCC CRL-1682), CRISPR-Cas9 knock-in clone, one tagged allele; assay: HiBiT degradation assay (G12D), AsPC-1 HiBiT-KRASG12D cells; format: cell-based; details: AsPC-1 HiBiT-KRASG12D cells, 24 hours treatment, HiBiT luminescence
Sequence (P01116 1-188 isoform P01116-2 G12D): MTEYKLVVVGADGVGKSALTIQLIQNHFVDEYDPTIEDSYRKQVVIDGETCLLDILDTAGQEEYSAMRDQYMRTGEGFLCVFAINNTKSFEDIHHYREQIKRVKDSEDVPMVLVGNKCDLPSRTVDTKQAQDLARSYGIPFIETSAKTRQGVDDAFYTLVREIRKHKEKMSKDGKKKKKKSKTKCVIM
Collected DC50 values appear next to each entry.

CCc1cccc2cc(O)cc(-c3ncc4c(N5CC6CCC(C5)N6)nc(OC[C@@]56CCCN5[C@H](COC(=O)N5CC7(C5)CN(c5cc([C@@H](C(=O)N8C[C@H](O)C[C@H]8C(=O)N[C@@H](C)c8ccc(-c9scnc9C)cc8)C(C)C)on5)C7)CC6)nc4c3F)c12; < 600 nM
CCc1cccc2cc(O)cc(-c3ncc4c(N5CC6CCC(C5)N6)nc(OC[C@@]56CCCN5[C@H](COC(=O)N5CC(COc7cc([C@@H](C(=O)N8C[C@H](O)C[C@H]8C(=O)N[C@@H](C)c8ccc(-c9scnc9C)cc8)C(C)C)on7)C5)CC6)nc4c3F)c12; 600 to 1000 nM
C#Cc1c(F)ccc2cc(O)cc(-c3ncc4c(N5CC6CCC(C5)N6)nc(OCCN5CCC6(CC5)CC(Oc5cc([C@@H](C(=O)N7C[C@H](O)C[C@H]7C(=O)N[C@@H](C)c7ccc(-c8scnc8C)cc7)C(C)C)on5)C6)nc4c3F)c12; < 600 nM
CCc1cccc2cc(O)cc(-c3ncc4c(N5CC6CCC(C5)N6)nc(OCCN5CC[C@H]6CN(c7cc([C@@H](C(=O)N8C[C@H](O)C[C@H]8C(=O)N[C@@H](C)c8ccc(-c9scnc9C)cc8)C(C)C)on7)C[C@H]6C5)nc4c3F)c12 (relative stereo); > 3000 nM
C#Cc1cccc2cc(O)cc(-c3ncc4c(N5CC6CCC(C6)C5)nc(OCCN5CCC(COCC(=O)N[C@H](C(=O)N6C[C@H](O)C[C@H]6C(=O)N[C@@H](C)c6ccc(-c7scnc7C)cc6)C(C)(C)C)CC5)nc4c3F)c12; > 3000 nM
Cc1ncsc1-c1ccc([C@H](C)NC(=O)[C@@H]2C[C@@H](O)CN2C(=O)[C@@H](c2cc(N3CCN(C(=O)OC[C@@H]4CC[C@@]5(COc6nc(N7CC8CCC(C7)N8)c7cnc(-c8cc(O)cc9cccc(Cl)c89)c(F)c7n6)CCCN45)CC3)no2)C(C)C)cc1 (relative stereo); < 600 nM
CCc1cccc2cc(O)cc(-c3ncc4c(N5CC6CCC(C5)N6)nc(OC[C@]56CCCN5C[C@H](Oc5cc([C@H](C(=O)N7C[C@H](O)C[C@H]7C(=O)N[C@@H](C)c7ccc(-c8scnc8C)cc7)C(C)C)on5)CC6)nc4c3F)c12; 1000 to 3000 nM

Notebook: CCc1cccc2cc(O)cc(-c3ncc4c(N5CC6CCC(C5)N6)nc(OCCN5CCC6(CC5)CN(c5cc([C@H](C(=O)N7C[C@H](O)C[C@H]7C(=O)N[C@@H](C)c7ccc(-c8scnc8C)cc7)C(C)C)on5)C6)nc4c3F)c12 , DC50 read as < 600 nM
